Assay Context: acidic group
Quantity Name: pKa

• CC[NH+]1CCC[C@@H]1CNC(=O)c1c(O)cccc1OC = 8.7
• CCOC(=O)C(CC)C(C)=O (centres undefined) = 12.7
• CC/C=C/Cc1[nH+]ccn1[C@H](C(=O)O)C(C)(C)S = 2
• O=C(O)c1ccc(Br)cc1 = 3.99
• CCC1(CC)OC(=O)NC1=O = 5.7
• O=Cc1ccccc1O = 8.36
• CCCCCCC(=O)NO = 9.62
• CCOC(=O)c1c(C)nc(C)c(C(=O)OCC)c1-c1ccc(NS(=O)(=O)c2ccc(N)cc2)cc1 = 9.15
• O=Cc1ccc(O)cc1 = 7.53
• Oc1cnc2ccccc2[nH+]1 = -1.37
• CCCc1c(C)[nH]n(C2CC[NH+](C)CC2)c1=O = 7.18
• O=C1CC[C@@H](C(=O)O)N1 = 3.4
• Cc1ccc(N[N+](=O)[O-])cc1 = 4.88
• O=C(O)[C@H]1O[C@@H]1C(=O)O = 1.92

* * *

# pKa per record follows
Assay Context: basic group
Quantity Name: pKa

- Nc1ccc(C[NH3+])cc1: 4.16
- C1CNCCNCCN1: 10.6
- [O-]c1ccnc([S-])n1: 12.7
- CC(C)N(C)/C=[NH+]/c1ccc(-c2c[nH]cn2)cc1: 5.52
- CCN(CC)CCCCCCCC(C)Nc1c2ccc(Cl)cc2nc2ccc(OC)cc12 (stereo not given): 10.4
- C[C@]1(N)C[C@@H]1N: 9.06
- CN(C)c1ncnc2c1ncn2[C@H]1O[C@@H](CO)[C@H](O)[C@@H]1O: 3.65
- CCCN(N)CCC: 7
- CSc1nccc(C)n1: 1.95
- CC1(C)CC(NCCO)CC(C)(C)[NH2+]1: 7.42
- CN(C)CCC(=O)[O-]: 9.85
- CCCCNCC[NH2+]CCCC: 7.46
- [NH3+]CCc1cnc[nH]1: 6.28
- CSc1cc(C)ncn1: 3.25
- c1cnc2c(c1)ccc1cccnc12: 4.96

* * *

Assay Context: acidic group
Entries and their pKa
Quantity Name: pKa

* O=C(O)[C@@H]1O[C@H](Oc2ccc3[nH+]ccc(O)c3c2)[C@@H](O)[C@H](O)[C@H]1O | 3.15
* CCCCC([NH3+])C(=O)O (centres undefined) | 2.29
* O=C(O)/C=C/c1ccc(O)cc1 | 4.64
* Cn1c(CO)nc2ccccc21 | 15.8
* O=C(O)c1ccc(O)cc1 | 4.57
* [O-]c1ccc(Nc2ccc(O)cc2)cc1 | 10.6
* Cc1ccc(C(=O)O)c([N+](=O)[O-])c1 | 2.68
* O=C(O)c1cccc(C2CC2)c1 | 4.28
* CCP(=O)(CC)CC(C)=O | 11.9
* N#CC(C#N)=NNc1ccccc1C(=O)O | 6.7
* Sc1ccc2ncccc2c1 | 6.5
* Cc1cc(Nc2ccc(O)cc2)c(C(C)C)cc1O | 9.85
* O=[N+]([O-])c1cccc([Se](=O)O)c1 | 4.07
* O=C1C(O)=C(/C=C/c2ccccc2)C(=O)c2ccccc21 | 4.44

* * *

Assay Context: basic group
Quantity Name: pKa

• [NH3+]Nc1nncc2ccccc12 = 2.9
• Nc1nc(N(CCO)CCO)nc(N(CCO)CCO)n1 = 5.15
• O=C(CN1CCOCC1)NCc1ccccc1 = 4.98
• CSc1ncc2[nH]cnc2n1 = 1.91
• O=C(NCCN1CCOCC1)c1ccc(Cl)cc1 = 6.31
• Cn1ccc(=S)cc1 = 1.36
• C=C(C)C(=O)NC(C)CN(C)C (stereo not drawn) = 8.51
• C#CCN1CCOCC1 = 5.54
• CN(C)S(=O)(=O)c1ccc(N)cc1 = 1.53
• CC(C)[C@@]12CN[C@@H](C(=O)[O-])[C@@H]1CC(=O)O2 = 7.8
• Cc1ccno1 = 2.3
• CC(N)=S = -2.51
• CCCCCCCCCCCCNCCCCCCCCCCCC = 11
• C=CCSS/C(CCO)=C(/C)N(C=O)Cc1cnc(C)nc1N = 5.65
• Nc1cccc([I+]c2ccccc2)c1 = 1.87
• CCN1CCC[C@@H]1CNC(=O)c1c([O-])c(Br)cc(Br)c1OC = 9.12
• CCOC(=O)C1CC2CCN1CC2 (stereo not drawn) = 8.8
• Nc1ccc(-c2ccc(/N=C/c3ccccc3O)cc2)cc1 = 7.68
• CN(CCO)CCO = 8.51
• Clc1cnc2c(ccc3cccnc32)c1 = 3.99
• Nc1ccc([N+](=O)[O-])c2ccccc12 = 0.53
• CC(C)(C)N1NC2CCC1C21CC1 (stereo not drawn) = 9.33
• Nc1ccnc([S-])n1 = 10.6
• CC(=O)C1(c2cccc(O)c2)CCN(C)CC1 = 8.61
• NCCc1c[nH]c2ccccc12 = 10.2
• C[C@H]([NH3+])C(=O)N[C@@H](Cc1c[nH]cn1)C(=O)[O-] = 6.76
• CC(C)N(c1ccccc1)C(C)C = 6.19
• Nc1cccc2[nH]ncc12 = 3.29
• CCN(CC)CC(=O)NC1CCCCC1 = 8.21
• N#CC1CN2CCC1CC2 (stereo not drawn) = 7.85
• Nc1cc2ccccc2nn1 = 3.66
• Nc1ccc(C(=O)O)cc1 = 2.41
• COc1cc(S(N)(=O)=O)cc(C(=O)N[C@@H]2C[C@H]3CC[C@@H](C2)N3Cc2ccccc2)c1OC = 8.87
• [O-]c1c(Cl)cc(Cl)cc1CN1CCOCC1 = 8.85
• Nc1cccnc1C(=O)[O-] = 7.18
• CC(C=C(c1cccs1)c1cccs1)N1CCCCC1 (stereo not drawn) = 8.46
• COC(=O)c1ccccn1 = 2.21
• CN(C)C1CC(C)(C)NC(C)(C)C1 = 10.6
• CCNc1cc[nH+]c([O-])n1 = 4.58
• Nc1ccc2cc3ccc(N)cc3nc2c1 = 9.65
• CNCCC#N = 8.1
• Nc1ccccn1 = 6.95
• Cc1ccc(C[NH3+])cc1N = 4.26
• CCCC(=O)SCCN(C)C = 8.32
• Nc1ncnc([O-])c1N = 9.86
• Cc1cc(C)nc(N)c1 = 7.84
• CCCCCCCCCCCCCCCN = 10.6
• CN[C@H]1CCCC[C@@H]1O = 10.2
• [NH3+]CCC(=O)NC(Cc1c[nH]cn1)C(=O)[O-] (stereo not drawn) = 7.08
• Nc1ccc(-c2cnc(-c3ccccc3)o2)cc1 = 3.68
• NCCC[n+]1cc(Br)c2ccccc2c1 = 9.53
• Nc1cccc2nccnc12 = 2.62
• NC(=O)CCc1ccccn1 = 5.09
• Nc1ccc(-c2cnc(-c3ccc(Cl)cc3)o2)cc1 = 3.52
• COc1nc(N)c2cnn(C)c2n1 = 3.66
• [S-]c1nccc[nH+]1 = 1.3
• CCN(CC)CCNc1nc(C)cc(N)n1 = 9.8
• Cc1cc(C)c(C)c(N)c1C = 4.3
• CCN(CC)/N=C(\C)N = 10.6
• CC(C)NCCC#N = 8
• CC(C)(C)NCCCCCCNC(C)(C)C = 11
• C[NH+](C)CCCNc1ccnc2c([N+](=O)[O-])cccc12 = 6.91
• CCCCCCCCCCN = 10.6
